Value source: patent EP4001279A1

- TESTED SYSTEM: SARS-CoV-2 3CL-protease (Severe acute respiratory syndrome coronavirus 2, UniProt P0DTD1)
- ASSAY OVERVIEW: SARS-CoV-2 3C-like (3CL) protease fluorescence assay (FRET)
- Assay type: biochemical
- TEST CONDITIONS: read-out: FRET IC50
MEASURED METRIC: IC50

Recorded results for 2 molecules are shown here.
[
  {
    "MOLECULE": "COc1cc(C(=O)N(C)[C@@H](CC(C)C)C(=O)N2C[C@]3(C[C@H]2C#N)C(=O)Nc2ccccc23)cn2cc(C(F)F)nc12 [Example 255]",
    "TESTED SYSTEM": "SARS-CoV-2 3CL-protease (Severe acute respiratory syndrome coronavirus 2, UniProt P0DTD1)",
    "IC50": "< 100 nM"
  },
  {
    "MOLECULE": "CC(C)C[C@@H](C(=O)N1C[C@]2(C[C@H]1C#N)C(=O)Nc1ccccc12)N(C)C(=O)[C@@H]1C[C@H]1c1ccccc1 [Example 280]",
    "TESTED SYSTEM": "SARS-CoV-2 3CL-protease (Severe acute respiratory syndrome coronavirus 2, UniProt P0DTD1)",
    "IC50": "< 100 nM"
  }
]

Hey, can you go through the list below and give me IC50 for every item?
1. CC(C)CC(C(=O)N1CC2(CC1C#N)C(=O)Nc1ccccc12)N(C)C(=O)C1CC1c1ccccc1 (stereo not drawn) [Example 281]
2. CC(C)C[C@@H](C(=O)N1C[C@]2(C[C@H]1C#N)C(=O)Nc1ccccc12)N(C)C(=O)c1ccccc1OC(F)F [Example 176]
3. CC(C)CC(C(=O)N1CC2(CC1C#N)C(=O)Nc1ccccc12)N(C)C(=O)c1nnn(-c2ccccc2)n1 (stereo not drawn) [Example 287]
4. CC(C)C[C@@H](C(=O)N1C[C@]2(C[C@H]1C(=O)C(=O)NC1CCCCC1)C(=O)Nc1ccccc12)N(C)C(=O)c1cc2c(F)cc(F)c(F)c2[nH]1 [Example 156]

Result block:
1: < 100 nM; 2: < 100 nM; 3: < 100 nM; 4: > 1000 nM

---

- TESTED SYSTEM: UniProtKB P0DTD1
- ASSAY OVERVIEW: SARS-CoV-2 3C-like (3CL) protease fluorescence assay (FRET)
- Assay type: biochemical
- TEST CONDITIONS: read-out: FRET IC50
pIC50: −log10 of the molar value.
MEASURED METRIC: pIC50

[
  {
    "COMPOUND": "CC(C)C[C@@H](C(=O)N1C[C@]2(C[C@H]1C#N)C(=O)Nc1ccccc12)N(C)C(=O)c1cc2cc(Br)ccc2cn1",
    "TESTED SYSTEM": "UniProtKB P0DTD1",
    "ENDPOINT VALUE": "6.00 to 7.00"
  },
  {
    "COMPOUND": "CC(C)CC(C(=O)N1CC2(CC1C#N)C(=O)Nc1ccccc12)N(C)C(=O)C1CCN(C(=O)C(F)(F)F)C1 (stereo not drawn)",
    "TESTED SYSTEM": "UniProtKB P0DTD1",
    "ENDPOINT VALUE": "> 7.00"
  }
]

Next item in the queue.
Query block: Using the record for `CC(C)(C)OC[C@H](NC(=O)c1cc2c(F)cc(F)cc2[nH]1)C(=O)N1C[C@]2(C[C@H]1C#N)C(=O)Nc1ccccc12` , report its pIC50.
Result block: > 7.00

---

- TESTED SYSTEM: SARS-CoV-2 3CL-protease (Severe acute respiratory syndrome coronavirus 2, UniProt P0DTD1)
- ASSAY OVERVIEW: SARS-CoV-2 3C-like (3CL) protease fluorescence assay (FRET)
- Assay type: biochemical
- TEST CONDITIONS: read-out: FRET IC50
pIC50: −log10 of the molar value.
Exercise: state measured pIC50 for each of the molecules provided.

Solved cases (3 shown):
[
  {
    "MOLECULE": "CC(C)CC(C(=O)N1CC2(CC1C#N)C(=O)Nc1ccccc12)N(C)C(=O)c1cc(OC2CC2)c2nn(C3CC3)cc2c1 (stereo not shown) [Example 307]",
    "pIC50": "6.00 to 7.00"
  },
  {
    "MOLECULE": "COc1cccc2[nH]c(C(=O)N[C@@H](COC(C)(C)C)C(=O)N3C[C@]4(C[C@H]3C#N)C(=O)Nc3ccccc34)cc12 [Example 124]",
    "pIC50": "> 7.00"
  },
  {
    "MOLECULE": "CC(C)(C)CC(NC(=O)c1cnn(-c2ccc(F)cc2)c1)C(=O)N1CC2(CC1C#N)C(=O)Nc1ccccc12 (stereo not shown) [Example 146]",
    "pIC50": "> 7.00"
  }
]

Query block: Need pIC50, item CN(C(=O)[C@@H](O)C(C)(C)C)[C@@H](CC1CC1)C(=O)N1C[C@]2(C[C@H]1C#N)C(=O)Nc1ccccc12 [Example 416]
Result block: > 7.00
